- target_under_test: human TLR9 (Homo sapiens, UniProt Q9NR96)
- Sequence (Q9NR96 26-1032): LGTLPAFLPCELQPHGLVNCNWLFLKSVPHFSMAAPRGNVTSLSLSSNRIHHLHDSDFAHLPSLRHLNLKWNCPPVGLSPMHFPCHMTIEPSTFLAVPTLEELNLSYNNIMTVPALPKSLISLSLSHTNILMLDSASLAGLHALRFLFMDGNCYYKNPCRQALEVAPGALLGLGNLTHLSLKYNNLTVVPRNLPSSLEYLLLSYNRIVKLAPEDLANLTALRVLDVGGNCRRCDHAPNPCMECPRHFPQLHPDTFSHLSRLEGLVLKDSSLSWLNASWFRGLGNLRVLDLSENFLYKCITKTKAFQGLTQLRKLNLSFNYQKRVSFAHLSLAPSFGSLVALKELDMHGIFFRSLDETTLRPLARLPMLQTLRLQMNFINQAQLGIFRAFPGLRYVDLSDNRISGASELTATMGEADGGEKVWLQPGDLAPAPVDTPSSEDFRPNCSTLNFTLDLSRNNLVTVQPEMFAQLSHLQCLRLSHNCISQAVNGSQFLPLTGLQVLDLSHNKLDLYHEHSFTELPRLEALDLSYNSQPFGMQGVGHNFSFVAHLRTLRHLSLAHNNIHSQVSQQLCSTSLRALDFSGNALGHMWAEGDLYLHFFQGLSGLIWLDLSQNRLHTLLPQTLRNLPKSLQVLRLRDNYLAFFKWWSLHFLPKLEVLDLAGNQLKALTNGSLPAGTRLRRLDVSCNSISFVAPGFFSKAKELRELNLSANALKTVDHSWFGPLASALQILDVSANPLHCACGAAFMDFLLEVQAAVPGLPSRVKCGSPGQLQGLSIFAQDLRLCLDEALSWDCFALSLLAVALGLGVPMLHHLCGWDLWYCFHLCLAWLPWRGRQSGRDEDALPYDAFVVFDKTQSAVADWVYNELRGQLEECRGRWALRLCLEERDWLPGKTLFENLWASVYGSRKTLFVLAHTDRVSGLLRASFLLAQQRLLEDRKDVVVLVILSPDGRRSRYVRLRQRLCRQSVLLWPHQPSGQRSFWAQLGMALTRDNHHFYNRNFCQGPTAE
- assay: TLR9 inhibition reporter assay (HEK-Blue cells, SEAP reporter, ODN2006 stimulation)
- recorded_conditions: HEK-Blue cells overexpressing human TLR9, ODN2006 5 nM
Catalogue of IC50 values
readout: IC50 (nM)

| compound | target_under_test | result_unit | censoring_qualifier | data_value |
| --- | --- | --- | --- | --- |
| COc1ccc(-c2[nH]c3ccc(C4CCN(C5CCN(C6CCCC(C)C6)CC5)CC4)cc3c2C)cc1OC (stereo not shown) [Example 67] | human TLR9 (Homo sapiens, UniProt Q9NR96) | nM | = | 70 |
| COc1ccc(-c2[nH]c3ccc(C4CCN(C(=O)CNCC#N)CC4)cc3c2C(C)C)cc1OC [Example 214] | human TLR9 (Homo sapiens, UniProt Q9NR96) | nM | ≥ | 50000 |
| COc1ccc(-c2[nH]c3ccc(C4CCN(C5CC(C)(C)N(C)C(C)(C)C5)CC4)cc3c2C)cc1OC [Example 22] | human TLR9 (Homo sapiens, UniProt Q9NR96) | nM | = | 1110 |
| COc1ccc(-c2[nH]c3ccc(C4CCN(C(=O)CN(C)C)CC4)cc3c2CC(F)F)cc1OC [Example 399] | human TLR9 (Homo sapiens, UniProt Q9NR96) | nM | = | 2170 |
| COc1ccc(-c2[nH]c3ccc(C4CCNC(=O)C4)cc3c2C(C)C)cc1OC (stereo not shown) [Example 326] | human TLR9 (Homo sapiens, UniProt Q9NR96) | nM | ≥ | 50000 |
| COc1ccc(-c2[nH]c3ccc(C4CCN(CC(=O)NCC#N)CC4)cc3c2CC(F)(F)F)cc1OC [Example 381] | human TLR9 (Homo sapiens, UniProt Q9NR96) | nM | = | 5910 |
| COc1ccc(-c2[nH]c3ccc(C4CCN(C(=O)CCCN(C)C)CC4)cc3c2CC(F)(F)F)cc1OC [Example 351] | human TLR9 (Homo sapiens, UniProt Q9NR96) | nM | = | 1560 |
